- stated conditions: 308.15 K; 101 kPa; Liquid; Pycnometric method
Parameter: mass density. Scope: all listed entries.
Field: numeric (kg/m3). Do not append units.

# annotated cases, reported mass density shown
compound	readout value
CCCCO	798.2
OCCOCCO	1105.9
OCCCCO	1006.7

We next turn to a different compound, shown below.
IN: Requested field: mass density. Item: CCC(C)O (centres undefined)
OUT: 794.2

Entry source: the NIST ThermoML archive (doi:10.1007/s10765-015-1980-6)
